- Tested on: SETVI, Green foxtail, Setaria viridis, (L.)Beau
- TEST: Preemergence herbicidal evaluation (Example 148)
- Format: in vivo
- CONDITIONS: rate 0.125 kg/ha, rating scale 0-9, two to four weeks after treatment
READOUT LABEL: Preemergence herbicidal rating SETVI
Please state the value as a number alone, without comment.

{"columns": ["MOLECULE SMILES", "RECORDED VALUE"],
 "data": [
  ["C#CCN(C)S(=O)(=O)NC(=O)c1cc(-n2c(=O)cc(C(F)(F)F)n(C)c2=O)c(F)cc1Cl", 0.0],
  ["CN(Cc1ccccc1)S(=O)(=O)NC(=O)c1cc(-n2c(=O)cc(C(F)(F)F)n(C)c2=O)c(F)cc1Cl", 3.0],
  ["CNS(=O)(=O)NC(=O)c1cc(-n2c(=O)cc(C(F)(F)F)n(C)c2=O)c(F)cc1Cl", 4.0],
  ["CCCN(C)S(=O)(=O)NC(=O)c1cc(-n2c(=O)cc(C(F)(F)F)n(C)c2=O)c(F)cc1Cl", 8.0],
  ["CC(C)N(C)S(=O)(=O)NC(=O)c1cc(-n2c(=O)cc(C(F)(F)F)n(N)c2=O)c(F)cc1Cl", 1.0],
  ["C=CCN(C)S(=O)(=O)NC(=O)c1cc(-n2c(=O)cc(C(F)(F)F)n(C)c2=O)c(F)cc1Cl", 4.0]
]}

Reported Preemergence herbicidal rating SETVI ( Cn1c(C(F)(F)F)cc(=O)n(-c2cc(C(=O)NS(=O)(=O)NCc3cccs3)c(Cl)cc2F)c1=O ) = 2.0

###

- Tested on: AMBEL, Ragweed, Common, Ambrosia artemiisifolia, L.
- TEST: Preemergence herbicidal evaluation (Example 148)
- Assay type: in vivo
- CONDITIONS: rate 0.125 kg/ha, rating scale 0-9, two to four weeks after treatment
READOUT LABEL: Preemergence herbicidal rating AMBEL
Please state the value as a number alone, without comment.

{"columns": ["MOLECULE SMILES", "TEST SYSTEM", "RECORDED VALUE"],
 "data": [
  ["COc1cccc(CN(C)S(=O)(=O)NC(=O)c2cc(-n3c(=O)cc(C(F)(F)F)n(C)c3=O)c(F)cc2Cl)c1", "AMBEL, Ragweed, Common, Ambrosia artemiisifolia, L.", 9.0],
  ["Cn1c(C(F)(F)F)cc(=O)n(-c2cc(C(=O)NS(=O)(=O)NC3CCCC3)c(Cl)cc2F)c1=O", "AMBEL, Ragweed, Common, Ambrosia artemiisifolia, L.", 9.0]
]}

Reported Preemergence herbicidal rating AMBEL ( CC(C)N(C)S(=O)(=O)NC(=O)c1cc(-n2c(=O)cc(C(F)(F)F)n(N)c2=O)c(F)cc1Cl ) = 8.0

Reported Preemergence herbicidal rating AMBEL ( CCCN(C)S(=O)(=O)NC(=O)c1cc(-n2c(=O)cc(C(F)(F)F)n(C)c2=O)c(F)cc1Cl ) = 9.0

Reported Preemergence herbicidal rating AMBEL ( Cn1c(C(F)(F)F)cc(=O)n(-c2cc(C(=O)NS(=O)(=O)NC(C)(C)C)c(Cl)cc2F)c1=O ) = 9.0

###

- Test system: GLXMA, Soybean, Glycine max, (L.) Merr.
- TEST: Postemergence herbicidal evaluation (Example 147)
- Type: in vivo
- CONDITIONS: rate 0.032 kg/ha, rating scale 0-9, two to three weeks after treatment
READOUT LABEL: Postemergence herbicidal rating GLXMA
Please state the value as a number alone, without comment.

{"columns": ["COMPOUND", "Postemergence herbicidal rating GLXMA"],
 "data": [
  ["CC(C)N(C(C)C)S(=O)(=O)NC(=O)c1cc(-n2c(=O)cc(C(F)(F)F)n(C)c2=O)c(F)cc1Cl", 8.5],
  ["CCOC(=O)CN(C)S(N)(=O)=O", 8.4],
  ["CN(c1ccccc1)S(=O)(=O)NC(=O)c1cc(-n2c(=O)cc(C(F)(F)F)n(C)c2=O)c(F)cc1Cl", 8.5],
  ["C#CCNS(=O)(=O)NC(=O)c1cc(-n2c(=O)cc(C(F)(F)F)n(C)c2=O)c(F)cc1Cl", 8.0],
  ["CN(Cc1cccc(Cl)c1)S(=O)(=O)NC(=O)c1cc(-n2c(=O)cc(C(F)(F)F)n(C)c2=O)c(F)cc1Cl", 8.0],
  ["Cn1c(C(F)(F)F)cc(=O)n(-c2cc(C(=O)NS(N)(=O)=O)c(Cl)cc2F)c1=O", 8.5],
  ["COc1cccc(CN(C)S(=O)(=O)NC(=O)c2cc(-n3c(=O)cc(C(F)(F)F)n(C)c3=O)c(F)cc2Cl)c1", 7.5],
  ["C=CCN(C)S(=O)(=O)NC(=O)c1cc(-n2c(=O)cc(C(F)(F)F)n(C)c2=O)c(F)cc1Cl", 8.5],
  ["CCN(C)S(=O)(=O)NC(=O)c1cc(-n2c(=O)cc(C(F)(F)F)n(C)c2=O)c(F)cc1Cl", 9.0],
  ["Cn1c(C(F)(F)F)cc(=O)n(-c2cc(C(=O)NS(=O)(=O)NC(C)(C)C)c(Cl)cc2F)c1=O", 8.5]
]}

Known value: GLXMA, Soybean, Glycine max, (L.) Merr. Postemergence herbicidal rating GLXMA of the compound Cn1c(C(F)(F)F)cc(=O)n(-c2cc(C(=O)NS(=O)(=O)NC3CCCC3)c(Cl)cc2F)c1=O equals 8.0

Known value: GLXMA, Soybean, Glycine max, (L.) Merr. Postemergence herbicidal rating GLXMA of the compound CCCN(CC)S(=O)(=O)NC(=O)c1cc(-n2c(=O)cc(C(F)(F)F)n(C)c2=O)c(F)cc1Cl equals 8.0

Known value: GLXMA, Soybean, Glycine max, (L.) Merr. Postemergence herbicidal rating GLXMA of the compound CCN(CC)S(=O)(=O)NC(=O)c1cc(-n2c(=O)cc(C(F)(F)F)n(C)c2=O)c(F)cc1Cl equals 8.5

Known value: GLXMA, Soybean, Glycine max, (L.) Merr. Postemergence herbicidal rating GLXMA of the compound CCCN(C)S(=O)(=O)NC(=O)c1cc(-n2c(=O)cc(C(F)(F)F)n(C)c2=O)c(F)cc1Cl equals 8.5

Known value: GLXMA, Soybean, Glycine max, (L.) Merr. Postemergence herbicidal rating GLXMA of the compound CN(CCC#N)S(=O)(=O)NC(=O)c1cc(-n2c(=O)cc(C(F)(F)F)n(C)c2=O)c(F)cc1Cl equals 8.5

Known value: GLXMA, Soybean, Glycine max, (L.) Merr. Postemergence herbicidal rating GLXMA of the compound COc1ccc(CNS(=O)(=O)NC(=O)c2cc(-n3c(=O)cc(C(F)(F)F)n(C)c3=O)c(F)cc2Cl)cc1 equals 8.5

Known value: GLXMA, Soybean, Glycine max, (L.) Merr. Postemergence herbicidal rating GLXMA of the compound C#CCN(C)S(=O)(=O)NC(=O)c1cc(-n2c(=O)cc(C(F)(F)F)n(C)c2=O)c(F)cc1Cl equals 6.5

Known value: GLXMA, Soybean, Glycine max, (L.) Merr. Postemergence herbicidal rating GLXMA of the compound CCC(C)NS(=O)(=O)NC(=O)c1cc(-n2c(=O)cc(C(F)(F)F)n(C)c2=O)c(F)cc1Cl (stereo not drawn) equals 8.0

Known value: GLXMA, Soybean, Glycine max, (L.) Merr. Postemergence herbicidal rating GLXMA of the compound CCCCN(C)S(=O)(=O)NC(=O)c1cc(-n2c(=O)cc(C(F)(F)F)n(C)c2=O)c(F)cc1Cl equals 7.5

Known value: GLXMA, Soybean, Glycine max, (L.) Merr. Postemergence herbicidal rating GLXMA of the compound CCNS(=O)(=O)NC(=O)c1cc(-n2c(=O)cc(C(F)(F)F)n(C)c2=O)c(F)cc1Cl equals 8.0

Known value: GLXMA, Soybean, Glycine max, (L.) Merr. Postemergence herbicidal rating GLXMA of the compound CCCNS(=O)(=O)NC(=O)c1cc(-n2c(=O)cc(C(F)(F)F)n(C)c2=O)c(F)cc1Cl equals 8.0

Known value: GLXMA, Soybean, Glycine max, (L.) Merr. Postemergence herbicidal rating GLXMA of the compound CC(C)CCNS(=O)(=O)NC(=O)c1cc(-n2c(=O)cc(C(F)(F)F)n(C)c2=O)c(F)cc1Cl equals 8.5

###

- System: SETVI, Green foxtail, Setaria viridis, (L.)Beau
- TEST: Postemergence herbicidal evaluation (Example 147)
- Format: in vivo
- CONDITIONS: rate 0.032 kg/ha, rating scale 0-9, two to three weeks after treatment
READOUT LABEL: Postemergence herbicidal rating SETVI
Please state the value as a number alone, without comment.

# count of solved cases: 3
{"columns": ["MOLECULE", "TEST SYSTEM", "RECORDED VALUE"],
 "data": [
  ["CN(c1ccccc1)S(=O)(=O)NC(=O)c1cc(-n2c(=O)cc(C(F)(F)F)n(C)c2=O)c(F)cc1Cl", "SETVI, Green foxtail, Setaria viridis, (L.)Beau", 5.0],
  ["COc1cccc(CN(C)S(=O)(=O)NC(=O)c2cc(-n3c(=O)cc(C(F)(F)F)n(C)c3=O)c(F)cc2Cl)c1", "SETVI, Green foxtail, Setaria viridis, (L.)Beau", 5.0],
  ["CCC(C)NS(=O)(=O)NC(=O)c1cc(-n2c(=O)cc(C(F)(F)F)n(C)c2=O)c(F)cc1Cl (stereo not drawn)", "SETVI, Green foxtail, Setaria viridis, (L.)Beau", 9.0]
]}

Reported Postemergence herbicidal rating SETVI ( CCCNS(=O)(=O)NC(=O)c1cc(-n2c(=O)cc(C(F)(F)F)n(C)c2=O)c(F)cc1Cl ) = 9.0

Reported Postemergence herbicidal rating SETVI ( Cn1c(C(F)(F)F)cc(=O)n(-c2cc(C(=O)NS(=O)(=O)NC3CCCC3)c(Cl)cc2F)c1=O ) = 9.0

Reported Postemergence herbicidal rating SETVI ( CN(Cc1cccc(Cl)c1)S(=O)(=O)NC(=O)c1cc(-n2c(=O)cc(C(F)(F)F)n(C)c2=O)c(F)cc1Cl ) = 8.0

Reported Postemergence herbicidal rating SETVI ( CCN(C)S(=O)(=O)NC(=O)c1cc(-n2c(=O)cc(C(F)(F)F)n(C)c2=O)c(F)cc1Cl ) = 9.0

Reported Postemergence herbicidal rating SETVI ( Cn1c(C(F)(F)F)cc(=O)n(-c2cc(C(=O)NS(N)(=O)=O)c(Cl)cc2F)c1=O ) = 8.0

Reported Postemergence herbicidal rating SETVI ( Cn1c(C(F)(F)F)cc(=O)n(-c2cc(C(=O)NS(=O)(=O)NC(C)(C)C)c(Cl)cc2F)c1=O ) = 8.0

Reported Postemergence herbicidal rating SETVI ( CN(CCC#N)S(=O)(=O)NC(=O)c1cc(-n2c(=O)cc(C(F)(F)F)n(C)c2=O)c(F)cc1Cl ) = 8.0

Reported Postemergence herbicidal rating SETVI ( CNS(=O)(=O)NC(=O)c1cc(-n2c(=O)cc(C(F)(F)F)n(C)c2=O)c(F)cc1Cl ) = 7.0

Reported Postemergence herbicidal rating SETVI ( CCCN(CC)S(=O)(=O)NC(=O)c1cc(-n2c(=O)cc(C(F)(F)F)n(C)c2=O)c(F)cc1Cl ) = 6.0

Reported Postemergence herbicidal rating SETVI ( CCC(C)N(C)S(=O)(=O)NC(=O)c1cc(-n2c(=O)cc(C(F)(F)F)n(C)c2=O)c(F)cc1Cl (stereo not drawn) ) = 6.0

Reported Postemergence herbicidal rating SETVI ( CCCN(C)S(=O)(=O)NC(=O)c1cc(-n2c(=O)cc(C(F)(F)F)n(C)c2=O)c(F)cc1Cl ) = 8.0

Reported Postemergence herbicidal rating SETVI ( CN(Cc1ccccc1)S(=O)(=O)NC(=O)c1cc(-n2c(=O)cc(C(F)(F)F)n(C)c2=O)c(F)cc1Cl ) = 9.0

Reported Postemergence herbicidal rating SETVI ( Cn1c(C(F)(F)F)cc(=O)n(-c2cc(C(=O)NS(=O)(=O)NCc3cccs3)c(Cl)cc2F)c1=O ) = 6.0

Reported Postemergence herbicidal rating SETVI ( CC(C)CCNS(=O)(=O)NC(=O)c1cc(-n2c(=O)cc(C(F)(F)F)n(C)c2=O)c(F)cc1Cl ) = 6.0

Reported Postemergence herbicidal rating SETVI ( CC(C)N(C(C)C)S(=O)(=O)NC(=O)c1cc(-n2c(=O)cc(C(F)(F)F)n(C)c2=O)c(F)cc1Cl ) = 9.0

Reported Postemergence herbicidal rating SETVI ( COc1ccc(CNS(=O)(=O)NC(=O)c2cc(-n3c(=O)cc(C(F)(F)F)n(C)c3=O)c(F)cc2Cl)cc1 ) = 7.0

Reported Postemergence herbicidal rating SETVI ( CCCCN(C)S(=O)(=O)NC(=O)c1cc(-n2c(=O)cc(C(F)(F)F)n(C)c2=O)c(F)cc1Cl ) = 8.0

Reported Postemergence herbicidal rating SETVI ( C#CCNS(=O)(=O)NC(=O)c1cc(-n2c(=O)cc(C(F)(F)F)n(C)c2=O)c(F)cc1Cl ) = 5.0

Reported Postemergence herbicidal rating SETVI ( C#CCN(C)S(=O)(=O)NC(=O)c1cc(-n2c(=O)cc(C(F)(F)F)n(C)c2=O)c(F)cc1Cl ) = 3.0

Reported Postemergence herbicidal rating SETVI ( C=CCN(C)S(=O)(=O)NC(=O)c1cc(-n2c(=O)cc(C(F)(F)F)n(C)c2=O)c(F)cc1Cl ) = 8.0

Reported Postemergence herbicidal rating SETVI ( CC(C)N(C)S(=O)(=O)NC(=O)c1cc(-n2c(=O)cc(C(F)(F)F)n(N)c2=O)c(F)cc1Cl ) = 6.0

Reported Postemergence herbicidal rating SETVI ( CCNS(=O)(=O)NC(=O)c1cc(-n2c(=O)cc(C(F)(F)F)n(C)c2=O)c(F)cc1Cl ) = 6.0

Reported Postemergence herbicidal rating SETVI ( CCOC(=O)CN(C)S(N)(=O)=O ) = 7.5

Reported Postemergence herbicidal rating SETVI ( CCN(CC)S(=O)(=O)NC(=O)c1cc(-n2c(=O)cc(C(F)(F)F)n(C)c2=O)c(F)cc1Cl ) = 9.0
